The reported numbers originate from the supplement of paper PMC7125110.

B1: glmS ribozyme (parent)
chain: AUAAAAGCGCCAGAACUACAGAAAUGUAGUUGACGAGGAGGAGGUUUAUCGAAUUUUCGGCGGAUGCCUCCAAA

# Variants of: B1
# experiment: self-cleavage kobs at 160 uM GlcN6P; higher = faster cleavage; RNA array
# setup conditions: with glucosamine-6-phosphate
Fewer inactive variants are shown than the library holds.
Please respond with reported self-cleavage kobs at 160 uM GlcN6P for every item in the list.

Recorded results for 3 variants are shown here.
item sequence	readout	result
AUAAAGGCGCCAGAACUACAGAAAUGUAGUUGACGAGGAGGAGGUUUAUCGAAUUUUCGACGGAUGCCUCCAAA [A6G G60A]	self-cleavage kobs at 160 uM GlcN6P	< 1e-05 s⁻¹
AUAAAAGCGCCAGCACUACAGAAAUGUAGUUGACGCGGAGGAGGUUUAUCGAAUUUUCGGCGAACGCCUCCAAA [A14C A36C G63A U65C]	self-cleavage kobs at 160 uM GlcN6P	< 1e-05 s⁻¹
AUAAAAGCGCCAGAACUACAGAAAUGUAUUUGACGAGGAGGAGGUUUAUCGAAAUUUCGGCGGAUGCCUCCAAA [G29U U54A]	self-cleavage kobs at 160 uM GlcN6P	0.000284 s⁻¹

Provide self-cleavage kobs at 160 uM GlcN6P for all items below, preserving their order.
1. AUAAAAGCGCCAGACCUACAGAAAUGUAGUUGACGAGGAGGAGGUUUAUCAAAUUUUCGGCGGAUGCCUCCAAA [A15C G51A]
2. AUAAAAGCCCCAGAACUACAGAAAUGUAGUUGACGAGGAGGAGGUUUAUCGAAUUUUCGGGGGAUGCCUCCAAA [G9C C61G]

Solution:
< 1e-05 s⁻¹
0.000309 s⁻¹

Provide self-cleavage kobs at 160 uM GlcN6P for all items below, preserving their order.
1. AUAAAAGCACCAGAACUACAGAAAUGUAGUUGACGAGAAGGAGGUUUAUCAAAUUUUCGGCGGAUGCCUCCAAA [G9A G38A G51A]
2. AUAAAAGCGCCAGAACUACAGAAAUGUAGUUGACGAGGAGGAGGUUUAUCGACUUUUCGGCGGAUGCAUCCAAA [A53C C68A]
3. AUAAAAGCGCCAGAACUACAGAAAUGUAGUUGACGUGGAGGAGGUUUGUCGAAUUUUCGGCGGAUGCCUCCAAA [A36U A48G]
4. AUAAAAGCGCCAGAACUACAGAAAUGUAGUUGACGAGGAGGAGGUUUAGCGAAUGUUCGGCGGAUGCCUCCAAA [U49G U55G]
5. AUAAAAGCGCAAGAACUACAGAAAUGUAUUUGACGAGGAGGAGGUUUAUGGAAUUUUCGGCGGAUGCCUCCAAA [C11A G29U C50G]
6. AUAAAAGCGCCAGAACUACAGAAAUGUAGUUGACCAGGAGGAGGUUUAUCGAAUUUUCUGUGGAUGCCUCCAAA [G35C G59U C61U]

Solution:
1: < 1e-05 s⁻¹; 2: < 1e-05 s⁻¹; 3: < 1e-05 s⁻¹; 4: 8.7e-05 s⁻¹; 5: 0.000296 s⁻¹; 6: < 1e-05 s⁻¹
